Biological target: Glycogen synthase kinase-3 beta splice variant X1 (Bos taurus)
Assay: Inhibition of bovine cerebral TPK1 assessed as reduction in P-GS1 phosphorylation using [32gammaP]ATP incubated for 2 hrs by liquid scintillation counting method
The source made the active and inactive calls. No rule for the calls is given here.
property: inhibition

Solved cases (5 shown):
| compound | inhibition |
| --- | --- |
| C[C@@H]1CN(c2ccc([C@H]3CN(c4nc(-c5ccncc5F)cc(=O)n4C)CCO3)cc2)C[C@H](C)O1 | Active |
| COc1ccc(C#N)cc1[C@H]1CN(c2nc(-c3ccncc3F)cc(=O)n2C)CCO1 | Active |
| Cn1c(N2CCO[C@@H](c3ccc(N(CC(F)(F)F)CC(F)(F)F)cc3)C2)nc(-c2ccncc2F)cc1=O | Active |
| CC(=O)N(C)[C@@H]1CCN(c2ccc([C@H]3CN(c4nc(-c5ccncc5F)cc(=O)n4C)CCO3)cc2)C1 | Active |
| Cn1c(N2CCO[C@@H](c3ccc(N4CCNC4=O)cc3)C2)nc(-c2ccncc2F)cc1=O | Active |

Query inhibition for Cn1c(N2CCO[C@@H](c3ccc(N4CCC[C@H]5CCCC[C@@H]54)cc3)C2)nc(-c2ccncc2F)cc1=O
Active

Give inhibition for CN(C)S(=O)(=O)c1ccc([C@H]2CN(c3nc(-c4ccncc4F)cc(=O)n3C)CCO2)cc1
Active

Give a short answer stating reported inhibition for Cn1c(N2CCO[C@@H](c3ccccc3)C2)nc(-c2ccncc2F)cc1=O .
Active

====

Biological target: Glycogen synthase kinase-3 beta splice variant X1 (Bos taurus) (UniProt A0A059UE90)
Assay: Inhibition of bovine cerebral TPK1 assessed as reduction in P-GS1 phosphorylation using [32gammaP]ATP incubated for 2 hrs by liquid scintillation counting method
Calls of active or inactive are those of the source. How the calls were made is not given here.
property: inhibition

Some compounds with known inhibition results, for comparison:
| compound | property | result |
| --- | --- | --- |
| Cn1c(N2CCO[C@@H](c3ccc(NC(=O)C4CCCC4)cc3)C2)nc(-c2ccncc2F)cc1=O | inhibition | Active |
| Cn1c(N2CCO[C@@H](c3ccc(NC(=O)CN4CCOCC4)cc3)C2)nc(-c2ccncc2F)cc1=O | inhibition | Active |
| Cn1c(N2CCO[C@@H](c3ccc(F)cc3)C2)nc(-c2ccncc2F)cc1=O | inhibition | Active |
| CN(C)C1CCN(c2ccc([C@H]3CN(c4nc(-c5ccncc5F)cc(=O)n4C)CCN3)cc2)CC1 | inhibition | Active |

Please look at this compound and report its inhibition: Cn1c(N2CCO[C@@H](c3ccc(C(=O)NCCO)cc3)C2)nc(-c2ccncc2F)cc1=O
Active

Note down inhibition recorded for Cn1c(N2CCN[C@@H](c3ccc(C#N)cc3)C2)nc(-c2ccncc2F)cc1=O
Active

Supply reported inhibition belonging to this compound: Cn1c(N2CCO[C@@H](c3ccc(CO)cc3)C2)nc(-c2ccncc2F)cc1=O
Active

Name the recorded inhibition of the item Cn1c(N2CCN[C@@H](c3ccc(-c4ccc(OC(F)(F)F)cc4)cc3)C2)nc(-c2ccncc2F)cc1=O in your answer.
Active

Indicate the recorded inhibition value for this compound: Cn1c(N2CCO[C@@H](c3ccc(N4CCN(CCO)CC4)cc3)C2)nc(-c2ccncc2F)cc1=O
Active

Please look at this compound and report its inhibition: CN(C)c1cccc2c(S(=O)(=O)Nc3ccc([C@H]4CN(c5nc(-c6ccncc6F)cc(=O)n5C)CCO4)cc3)cccc12
Active

Tell me its inhibition given Cn1c(N2CCO[C@@H](c3ccc(N)c(F)c3)C2)nc(-c2ccncc2F)cc1=O as the entry.
Active

Item Cc1ccc(-c2ccc([C@H]3CN(c4nc(-c5ccncc5F)cc(=O)n4C)CCN3)cc2)cc1 : provide inhibition
Active

Origin of the recorded values: ChEMBL document CHEMBL3727346
